SYSTEM TESTED: Fuc(a1-2)Gal6S(b1-4)Glc6S
ASSAY COMMENT: glycan array binding signal (z-score within array); higher = stronger binding
EXPERIMENTAL SETUP: glycan notation: IUPAC condensed, linker removed
About 410 targets per protein were measured; listed, in parts, are those with the strongest signals and a random draw of the rest.
Documented glycan array binding signal (z-score) across a set of binders
Respond using a number only.

Query block: # lookup: glycan array binding signal (z-score) of NKp30 (Homo sapiens), O14931 (protein) LWVSQPPEIRTLEGSSAFLPCSFNASQGRLAIGSVTWFRDEVVPGKEVRNGTPEFRGRLAPLASSRFLHDHQAELHIRDVRGHDASIYVCRVEVLGLGVGTGNGTRLVVEKEHPQLG
Result block: 2.23

Let us move to another entry and its glycan array binding signal (z-score).
Query block: Given the binder rCnSL-proA (Clitocybe nebularis) (protein) AAFFSLVVLLALLPFGIHASALPSTELTPRVNPNLPGPNDVFVGFRGTNNIVGAIYEKDGIKDTPLNNGADAEMGPGSYITDGLFTARIFASGSAGNNPGTTATVCKIYASGVQWRGAPKGYIPVAYFGNGPTAEQRRQTYLRTLGLPGTAIRFGNLNTNPGQGPTAPRQMVVPPGPLRSLLKASCFPAADTRLPQTLHYFEKRVDWNIITAADSQTWGH , what is its reported glycan array binding signal (z-score)?
Result block: -0.281
